- Test system: FU-OV-1 (Ovarian Carcinoma);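 further: after 72 h of two-drug dosing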
- experimental protocol: Bliss excess, mean over the matrix (fraction); higher = more synergy
measured metric: Bliss excess
Respond with the number and no other words.

molecule	Bliss excess
CC1(C)CCC(CN2CCN(c3ccc(C(=O)NS(=O)(=O)c4ccc(NCC5CCOCC5)c([N+](=O)[O-])c4)c(Oc4cnc5[nH]ccc5c4)c3)CC2)=C(c2ccc(Cl)cc2)C1 [Venetoclax] + C=CCn1c(=O)c2cnc(Nc3ccc(N4CCN(C)CC4)cc3)nc2n1-c1cccc(C(C)(C)O)n1 [AZD1775] (first compound max 1 µM, partner max 1 µM)	-0.0599

Attention now shifts to the item below.
**Query** # get_value(readout='Bliss excess', item= CS(=O)(=O)CCNCc1ccc(-c2ccc3ncnc(Nc4ccc(OCc5cccc(F)c5)c(Cl)c4)c3c2)o1 [Lapatinib] + NC1(c2ccc(-c3nc4ccn5c(=O)[nH]nc5c4cc3-c3ccccc3)cc2)CCC1 [MK-2206] (first compound max 10 µM, 7x7, partner max 10 µM) )
**Result** 0.0239
